biological target: human IL-13 (human, UniProt P35225 35-146); assay: cell-based or functional assay
Sequence (P35225 35-146 limits assumed, form in doubt): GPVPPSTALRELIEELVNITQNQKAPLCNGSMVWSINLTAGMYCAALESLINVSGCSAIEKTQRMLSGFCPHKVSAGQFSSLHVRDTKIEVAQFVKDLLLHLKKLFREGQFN
reported metric: CD23: Fold bioactivity relative to IL13-0001 (fold)
Report the value in fold with no unit label.

Previously resolved entries follow.
IL13-1308 (antibody, IgG1, V domains shown) VH: EVQLVESGGGLVQPGGSLRLSCAASGFTFSSYAMSWVRQAPGKGLEWVASISSGDTTYYPDSVKGRFTISRDNAKNSLYLQMNSLRAEDTAVYYCARLDGYYFGFPYWGQGTLVTVSS VL: DIQMTQSPSSLSASVGDRVTITCKASESVDHFGWSLVHWYQQKPGKAPKLLIYRASNLESGVPSRFSGSGSGTDFTLTISSLQPEDFATYYCQQSNEDPWTFGGGTKVEIKR :: 0.7
IL13-1307 (antibody, IgG1, V domains shown) VH: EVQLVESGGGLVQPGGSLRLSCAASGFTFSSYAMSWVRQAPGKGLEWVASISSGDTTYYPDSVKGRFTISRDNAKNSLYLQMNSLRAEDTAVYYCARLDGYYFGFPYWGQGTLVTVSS VL: DIQMTQSPSSLSASVGDRVTITCKASESVDHSGSSLMHWYQQKPGKAPKLLIYRASNLESGVPSRFSGSGSGTDFTLTISSLQPEDFATYYCQQSNEDPWTFGGGTKVEIK :: 0.03
IL13-1338 (antibody, IgG1, V domains shown) VH: EVQLVESGGGLVQPGGSLRLSCAASGFTFSSYAMSWVRQAPGKGLEWVASISSGDTTYYPDSVKGRFTISRDNAKNSLYLQMNSLRAEDTAVYYCARNEGYYFGLTLWGQGTLVTVSS VL: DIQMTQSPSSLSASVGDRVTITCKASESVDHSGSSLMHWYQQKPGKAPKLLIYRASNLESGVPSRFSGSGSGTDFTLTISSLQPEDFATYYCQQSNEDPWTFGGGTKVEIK :: 0.9

[Q] Quickly give me recorded CD23: Fold bioactivity relative to IL13-0001 for IL13-0001 (antibody, human IgG1, kappa, V domains shown, also called IL13433-0001; 1RVHC9-VLA4) VH: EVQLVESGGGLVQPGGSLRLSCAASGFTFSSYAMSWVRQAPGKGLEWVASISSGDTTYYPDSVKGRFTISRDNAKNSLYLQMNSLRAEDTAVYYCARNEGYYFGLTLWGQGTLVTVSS VL: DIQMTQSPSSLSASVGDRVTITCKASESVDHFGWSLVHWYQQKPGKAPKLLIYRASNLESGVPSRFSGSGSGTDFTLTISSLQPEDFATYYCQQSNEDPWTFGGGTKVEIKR
[A] 1
